biological target: MAGL protein (Homo sapiens, UniProt Q99685)
pIC50: −log10 of the molar value.
Assign class by pIC50: not lower than 9 means label 1; lower than 9 means label 0.

Answered examples (3):
O=C(N1CC2(CC(c3nc(C4CC4)n[nH]3)C2)C1)N1CC2(CN(Cc3nccn3C(F)(F)F)C2)C1 | label 0
CS(=O)(=O)c1ccc(OC2CCC3(C2)CN(C(=O)N2CC4(CC(c5nnc(C6CC6)[nH]5)C4)C2)C3)cc1C(F)(F)F (racemic) | label 0
O=C(N1CC2(CC(NCC3(C(F)(F)F)CC3)C2)C1)N1CC2(CC(c3nnc(C4CC4)[nH]3)C2)C1 | label 0

Query: Does "O=C(N1CC2(CC(Cc3ccc(C(F)(F)F)cc3F)C2)C1)N1CC2(CC(c3nc(C4CC(F)(F)C4)n[nH]3)C2)C1" have a reported pIC50 of at least 9?
Result: label 1

Query: Does "O=C(N1CC(c2ccc(CC(F)(F)F)cc2)C1)N1CC2(CC(c3nnc(C4(O)CC4)[nH]3)C2)C1" have a reported pIC50 of at least 9?
Result: label 0

---

Listed next: entries and their corresponding pIC50.
Target: MAGL protein (Homo sapiens, UniProt Q99685)
Sequence (Q99685 1-303): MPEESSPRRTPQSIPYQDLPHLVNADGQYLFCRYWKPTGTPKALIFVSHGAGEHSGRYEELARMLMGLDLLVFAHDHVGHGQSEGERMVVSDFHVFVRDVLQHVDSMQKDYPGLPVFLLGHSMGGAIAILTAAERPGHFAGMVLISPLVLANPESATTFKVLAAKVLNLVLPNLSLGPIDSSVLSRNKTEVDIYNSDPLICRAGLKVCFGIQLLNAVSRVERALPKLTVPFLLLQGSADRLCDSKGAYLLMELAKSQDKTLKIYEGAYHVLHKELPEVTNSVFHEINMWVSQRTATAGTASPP
Note: pIC50 values are expressed as the negative base-10 logarithm of concentration in M.

# annotated cases, reported pIC50 shown
N=S(=O)(c1ccc(CC2CC3(C2)CN(C(=O)N2CC4(CC(c5nc(C6CC(F)(F)C6)n[nH]5)C4)C2)C3)cc1)C(F)(F)F (stereo not shown) | 7.46
O=C(N1CCC(OCc2ccc(OC(F)(F)F)cc2F)CC1)N1CC2(CC(c3nc(C4CC4)n[nH]3)C2)C1 | 8.23
O=C(N1CC(NCc2cc(Cl)cc(C(F)(F)F)c2)C1)N1CC2(CC(c3nnc(C4CC4)[nH]3)C2)C1 | 7.74
N#Cc1ccc(CC2CC3(C2)CN(C(=O)N2CC4(CC(c5nc(C6CC(F)(F)C6)n[nH]5)C4)C2)C3)cc1C(F)(F)F | 7.89

Query: Look up pIC50 for this compound: N=S(=O)(c1cccc(OC2CC3(C2)CN(C(=O)N2CC4(CC(c5nc(C6CC6)n[nH]5)C4)C2)C3)c1)C(F)(F)F (stereo not shown)
Result: 9.17

Query: Look up pIC50 for this compound: "CCc1nsc(CN2CC3(C2)CN(C(=O)N2CC4(CC(c5nc(C6CC6)n[nH]5)C4)C2)C3)n1"
Result: 7.45

Query: Look up pIC50 for this compound: "O=C(N1CC2(CC(Cn3cnc(C(F)(F)F)c3)C2)C1)N1CC2(CC(c3nnc(C4CC4)[nH]3)C2)C1"
Result: 8.44
